Taken from PubChem BioAssay (Tox21).

Target: Luciferin 4-monooxygenase (Photinus pyralis) (UniProt P08659)
Sequence (P08659 whole entry, looked up): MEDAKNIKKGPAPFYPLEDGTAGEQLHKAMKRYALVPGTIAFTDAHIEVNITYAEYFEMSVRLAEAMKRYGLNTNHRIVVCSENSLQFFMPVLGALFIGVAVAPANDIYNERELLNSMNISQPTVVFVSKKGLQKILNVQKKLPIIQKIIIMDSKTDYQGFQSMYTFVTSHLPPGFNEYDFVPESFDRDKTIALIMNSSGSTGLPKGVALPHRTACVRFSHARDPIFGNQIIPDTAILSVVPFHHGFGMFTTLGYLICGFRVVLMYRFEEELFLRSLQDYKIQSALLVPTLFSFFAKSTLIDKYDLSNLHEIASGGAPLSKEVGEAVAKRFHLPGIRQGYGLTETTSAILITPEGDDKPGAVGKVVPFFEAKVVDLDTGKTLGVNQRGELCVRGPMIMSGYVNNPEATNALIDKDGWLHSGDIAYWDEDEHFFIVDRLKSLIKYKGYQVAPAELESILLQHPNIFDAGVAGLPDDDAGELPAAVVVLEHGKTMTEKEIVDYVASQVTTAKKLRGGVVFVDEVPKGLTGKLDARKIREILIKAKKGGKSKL
Assay: qHTS assay to identify small molecule inhibitors of firefly luciferase (AID 1224835); also: nearly all actives have a fitted effect of over 25% in size
Settings: purified P. pyralis luciferase, luminescence inhibition; series mostly up to 52.9 µM
Records with an inconclusive call do not appear. Active and inactive are the calls of the source. Calls follow the shape of the dose curve; as a rule, active = well fitted inhibition curve with a large enough effect in the repeat runs; inconclusive = weak or mixed curves; inactive = flat fitted curve, though single readings scatter.
One label from this list, please: class 1 = active, class 0 = inactive

Solved cases below.
CC1(C)S[C@@H]2[C@H](NC(=O)C(c3ccccc3)S(=O)(=O)O)C(=O)N2[C@H]1C(=O)O (some centres undefined) ... class 0
CCC1(CO)COCOC1 ... class 0
C1C[C@@H]2[C@H]3CC[C@H](C3)[C@@H]2C1 ... class 0
CC(C)Nc1cccnc1N1CCN(C(=O)c2cc3cc(NS(C)(=O)=O)ccc3[nH]2)CC1 ... class 0
CCC(C)COC(=O)CC(C)C (centres undefined) ... class 0
CCOC(=O)OC(C)OC(=O)[C@@H]1N2C(=O)[C@@H](NC(=O)[C@H](N)c3ccccc3)[C@H]2SC1(C)C (some centres undefined) ... class 0

Could you please tell me the result logged for CCCCN(CCCC)C(C(N)=O)c1ccc(OC)cc1 (centres undefined) in this assay?
class 0

`COc1ccc(OC(=O)N(CC(=O)O)Cc2ccc(OCCc3nc(-c4ccccc4)oc3C)cc2)cc1` , same question.
class 0

CCC(C)COC(C)=O (centres undefined) , same question.
class 0

`O=C1c2ccccc2C(=O)C1c1ccc(Br)cc1` , same question.
class 1

`O=C(Nc1cccc2c(=O)cc(-c3nn[nH]n3)oc12)c1ccc(OCCCCc2ccccc2)cc1` , same question.
class 1

`O=C1c2ccccc2C(=O)c2c(O)c(O)cc(O)c21` , same question.
class 1
